# PROCEDURE_DETAILS: Cytotoxicity against normal cells, MTT assay
# CONDITION_DESCRIPTION: human, WISH normal cells
REPORTED_ENDPOINT: pIC50
When answering, recall that pIC50 equals minus log10 of the concentration in mol/L, and write that number alone.

Known results for molecules:
COc1cccc2c1C(=O)c1c(O)c3c(c(O)c1C2=O)C[C@@](O)(C(=O)CO)C[C@@H]3O[C@H]1C[C@H](N)[C@H](O)[C@H](C)O1 [Doxorubicin, doxorubicin, reference compound]; 3.36
Cc1ccc(-c2cc(-c3ccccc3)nc3sc4c(c23)NC2(CCCC2)N=C4SCC2CO2)cc1 (stereo not shown); 3.38
Cc1cc(C)c2c(n1)sc1c(Cl)nc(Cl)nc12; 3.38
Cc1cc(C)c2c(n1)sc1c(=O)[nH]c(CCl)nc12; 3.34
Cc1ccc(-c2cc(-c3ccccc3)nc3sc4c(c23)NC2(CCCC2)N=C4SCC(N)=O)cc1; 3.40

# pIC50 lookup, item "Cc1ccc(-c2cc(-c3ccccc3)nc3sc4c(=O)[nH]c(CN5CCOCC5)nc4c23)cc1"
3.39

# pIC50 lookup, item "Cc1ccc(-c2cc(-c3ccccc3)nc3sc4c(c23)NC2(CCCC2)NC4=O)cc1"
3.40

====

// MIC collected for Candida albicans 10231
Your answer should be a plain number; it is taken to be in µg/mL.

Cc1ccc(-c2cc(-c3ccccc3)nc3sc4c(c23)NC2(CCCC2)NC4=O)cc1; 8
Cc1ccc(-c2cc(-c3ccccc3)nc3sc4c(=O)[nH]c(CCl)nc4c23)cc1; 8

Note: attention shifts to another entry.
Form entry - test system: Candida albicans 10231; read-out: MIC; compound: Cc1ccc(-c2cc(-c3ccccc3)nc3sc4c(c23)NC2(CCCC2)N=C4SCC2CO2)cc1 (stereo not drawn)
4
